Collected pest or weed control at 5 g/ha values appear next to each entry.
- Test system: PHBPU
- protocol notes: Post-emergence herbicidal action against PHBPU
- Format: in vivo, Pharbitis purpurea
- reported conditions: Ipomoea purpurea, 504 h, dosage 5 g/ha
Note to self: number, then unit, no commentary.

Some compounds with known pest or weed control at 5 g/ha results, for comparison:
INSERT INTO measurements (query_smiles, measured_result) VALUES
  ('Cn1nnnc1NC(=O)c1ccc(C(F)F)c(C(=O)NC2CC2)c1Br', '80%'),
  ('CCCNC(=O)c1c(C(F)(F)F)ccc(C(=O)Nc2nnnn2CC)c1C', '80%'),
  ('CNC(=O)c1c(C(F)(F)C(F)(F)F)ccc(C(=O)Nc2nnnn2C)c1Cl', '90%');

Fill blank: measured pest or weed control at 5 g/ha of the compound CCNC(=O)c1c(C(F)(F)F)ccc(C(=O)Nc2nnnn2C)c1C1CC1 is ____. 90%

Follow-up entry: CCNC(=O)c1c(C(F)(F)C(F)(F)F)ccc(C(=O)Nc2nnnn2C)c1Cl 80%

Follow-up entry: CCNC(=O)c1c(C(F)F)ccc(C(=O)Nc2nnnn2C)c1SC 80%

Follow-up entry: Cc1c(C(=O)Nc2nnnn2C)ccc(C(F)F)c1C(=O)NC(C)C 80%

====

- Test system: VERPE
- protocol notes: Pre-emergence herbicidal action against VERPE
- Format: in vivo, Veronica persica
- reported conditions: Veronica persica, 504 h, dosage 80 g/ha
reported property: pest or weed control at 80 g/ha (%)
The reply should contain only the number, in %.

Some molecules with known pest or weed control at 80 g/ha results, for comparison:
INSERT INTO assay_data (query_smiles, measured_result) VALUES
  ('CCn1nnnc1NC(=O)c1ccc(Br)c(C(=O)NC2CC2)c1Cl', 90),
  ('Cn1nnnc1NC(=O)c1ccc(Cl)c(C(=O)NC2CC2)c1Br', 90),
  ('CCNC(=O)c1c(C(F)F)ccc(C(=O)Nc2nnnn2CC)c1Cl', 80),
  ('CCNC(=O)c1c(Cl)ccc(C(=O)Nc2nnnn2C)c1Br', 80),
  ('CCNC(=O)c1c(Br)ccc(C(=O)Nc2nnnn2CC)c1Cl', 90),
  ('CCn1nnnc1NC(=O)c1ccc(I)c(C(=O)NC2CC2)c1Cl', 90);

Fill blank: measured pest or weed control at 80 g/ha of the molecule CNC(=O)c1c(C(F)(F)F)ccc(C(=O)Nc2nnnn2C)c1OC is ____. 90

====

Collected Pre-emergence action against HORMU in % values appear next to each entry.
- System: HORMU
- protocol notes: Pre-emergence herbicidal action against HORMU
- Type: in vivo, Hordeum murinum
- reported conditions: 80 g/ha, pre-emergence
The reply should contain only the number, in %.

INSERT INTO measurements (query_smiles, reported_property, result_units, measured_result) VALUES
  ('CCNC(=O)c1c(C(F)(F)F)ccc(C(=O)Nc2nnc(C)o2)c1Br', 'Pre-emergence action against HORMU in %', '%', 80),
  ('CCn1nnnc1NC(=O)c1ccc(C(F)F)c(C(=O)NC)c1SC', 'Pre-emergence action against HORMU in %', '%', 80),
  ('CCNC(=O)c1c(C(F)(F)F)ccc(C(=O)Nc2nnco2)c1Cl', 'Pre-emergence action against HORMU in %', '%', 80);

Below: the item to evaluate.
Fill blank: measured Pre-emergence action against HORMU in % of the compound CCCn1nnnc1NC(=O)c1ccc(C(F)(F)F)c(C(=O)NC(C)=O)c1Cl is ____. 100
